tested-target: PDE10A1 (AB 020593) (Homo sapiens)
Construct: made in house; host or cells: baculovirus / SF21 insect cells (gene synthesized by Entelechon GmbH)
protocol-notes: Inhibition of recombinant PDE10A (baculovirus/SF21 system)
Type: biochemical
stated-conditions: recombinant cytosolic PDE10A, 0.1 μM [3H]-cAMP, 37° C., 30 minutes, SPA; read-out: PDE10A IC50
Please use the following IC50 ranges when assigning a class: Low = under 90 nM, Medium = from 90 nM up to 300 nM, High = 300 nM and over

* COc1ccc2nnc3c(C)nc(-c4cccc(OC(F)(F)F)c4)n3c2n1 [Example 25] | High
* COc1ccc2nnc3c(C)nc(-c4ccccc4C(F)(F)F)n3c2n1 [Example 102] | Medium
* COc1ccc2nnc3c(C)nc(-c4cc(Cl)cc(Cl)c4Cl)n3c2n1 [Example 85] | Medium
* COc1ccc2nnc3c(C)nc(-c4cccnc4F)n3c2n1 [Example 53] | Medium
* COc1ccc2nnc3c(C)nc(-c4cc(C)ccc4Cl)n3c2n1 [Example 71] | Low
* COc1ccc2nnc3c(C)nc(-c4ccc(F)c(OC)c4)n3c2n1 [Example 23] | Low
* COc1ccc2nnc3c(-c4ccccc4)ncn3c2n1 [Example 124] | High
* COc1ccc2nnc3c(C)nc(-c4c(Cl)cccc4OC)n3c2n1 [Example 86] | Low

# classify by IC50 band: COc1ccc2nnc3c(C)nc(-c4cccc(C)c4F)n3c2n1 [Example 63] Low

Now the same for COc1ccc2nnc3c(C)nc(-c4ccccc4OC)n3c2n1 [Example 70] Low

Okay, and CCOc1cc(F)cc(-c2nc(C)c3nnc4ccc(OC)nc4n23)c1 [Example 29] ? High

Ok, now COc1cc(-c2nc(C)c3nnc4ccc(OC)nc4n23)c(Cl)cn1 [Example 46] Medium

Next compound up: COc1ccc2nnc3c(C)nc(-c4cccc(F)c4Cl)n3c2n1 [Example 91] Low

Also, COc1ccc2nnc3c(C)nc(-c4cccnc4)n3c2n1 [Example 55] please. High

* * *

tested-target: PDE10A1 (AB 020593) (Homo sapiens, UniProt Q9Y233)
Construct: made in house; host or cells: baculovirus / SF21 insect cells (gene synthesized by Entelechon GmbH)
Sequence (Q9Y233 other isoform, or with tags, fused parts or gaps): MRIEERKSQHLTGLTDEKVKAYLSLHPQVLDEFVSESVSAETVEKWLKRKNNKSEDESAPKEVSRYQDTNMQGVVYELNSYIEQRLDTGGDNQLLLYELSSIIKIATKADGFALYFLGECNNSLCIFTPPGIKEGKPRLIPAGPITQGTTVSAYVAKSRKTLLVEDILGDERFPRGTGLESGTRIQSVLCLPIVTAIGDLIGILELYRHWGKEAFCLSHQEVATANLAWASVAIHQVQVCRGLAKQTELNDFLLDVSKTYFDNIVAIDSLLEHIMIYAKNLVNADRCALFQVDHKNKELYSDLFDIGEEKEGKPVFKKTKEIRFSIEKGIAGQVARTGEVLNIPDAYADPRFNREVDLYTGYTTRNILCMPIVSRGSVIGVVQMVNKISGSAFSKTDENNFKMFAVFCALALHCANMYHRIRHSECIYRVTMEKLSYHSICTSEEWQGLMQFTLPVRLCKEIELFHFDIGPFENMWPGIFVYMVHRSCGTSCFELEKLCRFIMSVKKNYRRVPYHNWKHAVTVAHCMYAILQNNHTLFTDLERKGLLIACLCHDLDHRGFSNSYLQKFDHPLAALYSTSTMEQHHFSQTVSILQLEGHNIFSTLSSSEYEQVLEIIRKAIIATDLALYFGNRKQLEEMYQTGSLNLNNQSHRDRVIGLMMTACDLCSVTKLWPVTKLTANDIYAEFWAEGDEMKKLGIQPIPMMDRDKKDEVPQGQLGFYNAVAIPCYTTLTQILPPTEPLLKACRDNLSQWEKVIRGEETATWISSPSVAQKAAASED
protocol-notes: Inhibition of recombinant PDE10A (baculovirus/SF21 system)
Assay type: biochemical
stated-conditions: recombinant cytosolic PDE10A, 0.1 μM [3H]-cAMP, 37° C., 30 minutes, SPA; read-out: PDE10A IC50
Please provide measured IC50 for the entries that follow.

Consider the worked cases shown below.
• COc1ccc2nnc3c(C)nc(-c4ccc(Cl)c(C(N)=O)c4)n3c2n1 [Example 83] = 233 nM
• Cc1cn(-c2ccc3nnc4c(C)nc(-c5cc(Cl)ccc5Cl)n4c3n2)c(-c2cc(Cl)ccc2Cl)n1 [Example 119] = 240 nM
• COc1ccc2nnc3c(C)nc(-c4ccc(OC)c(Cl)c4)n3c2n1 [Example 95] = > 500 nM

Items follow; give IC50 for each.
1. CCCc1nc(C)c2nnc3ccc(OC)nc3n12 [Example 1]
2. COc1ccc2nnc3c(C)nc(C4CCCCC4)n3c2n1 [Example 11]
3. COc1ccc2nnc3c(C)nc(-c4ccncc4C)n3c2n1 [Example 64]

["102 nM", "41.4 nM", "85.6 nM"]

Count: 2. Required value per item: IC50.
1. c1ccc(-c2ncn3c2nnc2cccnc23)cc1 [Example 125]
2. COc1ccc2nnc3c(C)nc(-c4cc(Cl)ccc4Cl)n3c2n1 [Example 9]

> 1000 nM
70.9 nM

Can you give me IC50 for all of these, one by one?
1. CCOc1ccc(Cl)c(-c2nc(C)c3nnc4ccc(OC)nc4n23)c1 [Example 74]
2. COc1ccnc2c1nnc1c(C)nc(-c3cnccc3C)n12 [Example 115]

1: 87.9 nM; 2: 42.4 nM

Provide each entry's IC50 from the list below.
1. COc1ccc2nnc3c(C)nc(-c4ccoc4)n3c2n1 [Example 78]
2. COc1ccc2nnc3c(C)nc(-c4cccc(C(C)C)c4)n3c2n1 [Example 15]
3. COc1ccc2nnc3c(C)nc(-c4cc(F)cc(C(N)=O)c4)n3c2n1 [Example 82]

482 nM
> 1000 nM
141 nM

Fill in the blank: the reported IC50 of COc1ccc2nnc3c(C)nc(-c4cccnc4OC)n3c2n1 [Example 32] is ____. 209 nM
